System: P. Falciparum NF54
Experiment: Plasmodium falciparum in vitro assay ([3H]-hypoxanthine incorporation)
Assay type: cell-based
Details: Plasmodium falciparum, Erythrocyte, P. Falciparum NF54, erythrocytic stages in human red blood cells, 50% human serum
readout-type: IC50 (nM)

Cc1cc(Nc2ccc(CN(C(=O)/C=C/c3ccc(C(F)(F)F)cc3)[C@H]3CCCN(C(C)C)C3)cn2)ccn1 [Example 120] = 90

I. Cc1cc(Nc2ccc(CN(C(=O)/C=C/c3ccc(C(F)(F)F)cc3)C3CCN(C4CCCC4)CC3)nc2)ccn1 [Example 170]
II. CC(C)CCN1CCC(CN(Cc2ccc(N(C)c3ccncc3)cc2)C(=O)/C=C/c2ccc(C(F)(F)F)cc2)CC1 [Example 189]
III. Cc1cc(Nc2ccc(CN(CC3(O)CCN(C)CC3)C(=O)/C=C/c3ccc(C(F)(F)F)cc3)cc2)ccn1 [Example 175]
IV. O=C(/C=C/c1ccc(C(F)(F)F)cc1)N(Cc1ccc(Nc2ccnc3cc(C(F)(F)F)ccc23)cc1)C1CCN(C2CCCC2)CC1 [Example 90]
q: Rank items: key IC50, increasing. Please respond by ranking the labels in the order requested.
a: II, I, IV, III
